Measured PBM binding z-score, listed per entry.
test system: RXRa homodimer (NR concentration 180 nM); test: PBM binding z-score (relative to random genomic background probes); higher = stronger binding; sequences stand for … in GC…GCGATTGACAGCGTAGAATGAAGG
// response body must contain only the number

// worked examples, PBM binding z-score included
> print(dat)
                             residues  reported.value
1  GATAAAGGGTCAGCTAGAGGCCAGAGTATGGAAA            5.05
2  CCGAGTAGGATACGAGGGGGCATTCAGTGCGAAT           0.919
3  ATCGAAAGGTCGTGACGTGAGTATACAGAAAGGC            4.94
4  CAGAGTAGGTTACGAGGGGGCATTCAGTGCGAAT             2.2

Now look at this one.
Entry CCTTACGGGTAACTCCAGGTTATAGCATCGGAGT , RXRa homodimer (NR concentration 180 nM) data, PBM binding z-score value: 0.381
